Known DR/DR AA of a selection of molecules
experiment: Probe fluorescence ratio response to arachidonic acid relative to ADIFAB2; format: binding; details: arachidonic acid; response relative to ADIFAB2
REPORTED ENDPOINT: DR/DR AA

[[record]]
molecule = "21Y 78I 102I 72A (protein, listed as Rattus norvegicus, PEPTIDE (1)...(131) wild-type rat intestinal fatty acid binding protein) AFDGTWKVDRNENYEKFMEKYGINVVKRKLGAHDNLKLTITQEGNKFTVKESSNFRNIDVVFELGVDFAYSAADGTEITGTWTMEGNKLVGKFKRVDNGKEIIAVREISGNELIQTYTYEGVEAKRIFKKE"
value_reported = 3.536

[[record]]
molecule = "119M, 72A (protein, listed as Rattus norvegicus, PEPTIDE (1)...(131) wild-type rat intestinal fatty acid binding protein) AFDGTWKVDRNENYEKFMEKMGINVVKRKLGAHDNLKLTITQEGNKFTVKESSNFRNIDVVFELGVDFAYSAADGTELTGTWTMEGNKLVGKFKRVDNGKELIAVREISGNELIQTYTMEGVEAKRIFKKE"
value_reported = 1.087

